- System: SF-295 CNS
- Assay Explanation: NCI tumour cell line growth inhibition, 48 h
Where a SMILES comes first, the peptide text is derived from it. [ ]: non-standard residue; d: D form. pGlu = O=C1CC[CH](C(=O)O)N1; Thz = O=C(O)[CH]1CSCN1
Consider the following compounds and their measured TGI readings.

Compound	TGI
CCC(CC)n1cnc2c(-c3cnc(N)cn3)nc(N3CC4CCC(C3)O4)nc21	1.59 µM
Cc1c(Cn2c(C)nc3c(C(=O)O)cc(N4CCOCC4)cc32)cccc1C(F)(F)F	> 84.4 µM
S=C(NCc1ccccc1)Nc1sc(=NCc2ccccc2)nc2sc3c(c12)CCN(N1CCc2c(sc4nc(=NCc5ccccc5)sc(NC(=S)NCc5ccccc5)c24)C1)C3	> 100 µM
FC1(F)ON2CCc3ccccc3C2[C@H]1c1ccccc1 (some centres undefined)	> 100 µM
CCOP(=O)(CC(=O)C1CC1)OCC	> 100 µM
COc1ccc2c(c1)c1c3c(ccc4ncn2c43)N(CCO)CCN=1	0.831 µM
COC[C@H](NC(=O)c1cnc(C)s1)C(=O)N[C@@H](COC)C(=O)N[C@@H](Cc1ccccc1)C(=O)[C@@]1(C)CO1	72.7 µM
NCCCCC(NC(=O)C(N)CCCN=C(N)N)C(=O)NC(CCCCN)C(=O)NC(CCCN=C(N)N)C(=O)NC(CCCN=C(N)N)C(=O)NC(CCC(N)=O)C(=O)NC(CCCN=C(N)N)C(=O)NC(CCCN=C(N)N)C(=O)NC(CCCN=C(N)N)C(=O)NCC(=O)NCC(=O)O (centres undefined)	> 50 µM
CCN(CC)CCN(CC)CC.CCN(CC)CCN(CC)CC.[Cu+2].[Cu+2].[O-][Cl+3]([O-])([O-])[O-].[OH3+].[OH3+]	98.9 µM
Cc1cn(C2CC(n3cc(Cn4ccc(=O)[nH]c4=O)nn3)C(CO)O2)c(=O)[nH]c1=O (centres undefined)	> 100 µM
O=C(Cc1ccc2ccccc2c1)NCc1ccc(C(=O)NCCc2ccccc2)cc1	> 100 µM
O=C1CCC(C(=O)N2CSCC2C(=O)O)N1 (centres undefined) ([pGlu]-[Thz]-OH; configuration not given here)	> 100 µM
CC(C)(C)OC(=O)C1C(=O)NC(=O)CC1CC(OCc1ccccc1)C(OCc1ccccc1)C(COCc1ccccc1)OCc1ccccc1 (centres undefined)	> 100 µM
CC(=O)OC12C(C)=C(C)C(=O)N1c1ccccc1N2C(C)=O (centres undefined)	> 100 µM
[N-]=[N+]=NCN1C(=O)C2C3C=CC(C2C1=O)C1C2C(=O)N(CN=[N+]=[N-])C(=O)C2C31 (centres undefined)	> 100 µM
COc1ccccc1C#Cc1ccccc1C#Cc1ccc(OCCCCCCOc2ccccc2C#Cc2ccccc2C#Cc2ccccc2OC)cc1	> 100 µM
Nc1ncnc2c1ncn2[C@H]1C=C[C@@H](NO)C1	> 100 µM
CCOC(=O)C(=Cc1ccc(C#N)cc1)C(=O)OCC	21.2 µM
COc1cc(C2C=C(c3ccccc3)Oc3cc4c(cc32)OCO4)cc(OC)c1OC (centres undefined)	> 16.9 µM
C=C(C)[C@@H]1CC[C@]2(CO)CC[C@]3(C)[C@H](CC[C@@H]4[C@@]5(C)CCCNC(C)(C)[C@@H]5CC[C@]43C)[C@@H]12	3.13 µM
CC1SC(c2ccccc2Cl)N(NC(=O)C(O)c2ccccc2)C1=O (centres undefined)	> 100 µM
O=S(=O)(O)c1ccc(N=Nc2ccccc2)cc1	> 100 µM
CN(C)c1ccc(/C=c2\sc3nnc(-c4ccco4)n3c2=O)cc1	> 100 µM
O=C(O)c1cccc(S(=O)(=O)NCCO)c1	> 100 µM
Oc1ccccc1-c1nn(CNc2ccc(Cl)cc2)c(=S)o1	> 100 µM
CN(O)C(=O)CCC(NC(=O)CCC(N)C(=O)O)C(=O)NCC(=O)O (centres undefined)	> 100 µM
CC1=C([Te]c2ccccc2)C(=O)c2ccccc2C1=O	0.697 µM
CC(C)(C)C1=CC(=N/N=c2\scc(-c3ccccc3)n2-c2ccccc2)C=C(C(C)(C)C)C1=O	> 100 µM
COC(=O)C(CNC(=O)/C=C/c1ccc(OC)c(OC)c1)NC(=O)/C=C/c1ccc(OC)c(OC)c1 (centres undefined)	> 100 µM
O=C1Nc2c(Cl)cc(Cl)cc2/C1=N/N=C/c1ccco1	> 100 µM
COc1ccc2cc(-c3cnc4nonc4n3)ccc2c1	> 100 µM
CC(NC(=O)C1CCC(=O)N1)C(=O)N1CCCC1C(N)=O (stereo not drawn) ([pGlu]-Ala-Pro-NH2; configuration not given here)	> 100 µM
CC1CCN(C(C)C)P(=S)(Cc2ccccc2)O1 (centres undefined)	> 100 µM
COc1ccc(C2CC(c3c(O)ccc4ccccc34)=NN2)cc1OC (centres undefined)	17.6 µM
NC(=O)CC1OC(=O)Cc2cc3c(c(O)c21)C(=O)c1c(O)cccc1C3=O (centres undefined)	> 100 µM
CCCCCCCCCCCCSC(=S)c1c(C)[nH]n(-c2ccccc2)c1=O	35.6 µM
CCCCSC1=N/C(=C\c2ccccc2O)C(=O)N1	> 100 µM
ClCc1nc2ccccc2[nH]1	> 100 µM
Cc1nc(OCc2ccccc2)c2ncn(CCO)c2n1	> 100 µM
